# System: NCI-H23
# EXPERIMENT: NCI tumour cell line growth inhibition, 48 h
Activity calls are given as the source filed them. No stated cut-off is given here; in the data, active = GI50 up to about 1.1 µM and inactive = higher.
RECORDED ENDPOINT: GI50

Reference set (8 entries):
{"columns": ["COMPOUND", "OBSERVED RESULT"],
 "data": [
  ["CC(=O)OCC(OC(C)=O)C(OC(C)=O)C(OC(C)=O)C(/C=N\\Nc1nc2ccccc2c(=O)[nH]1)=N/Nc1nc2ccccc2c(=O)[nH]1 (stereo not given)", "> 100 µM (inactive)"],
  ["Cc1cc(C(=O)N2CCN(Cc3ccccc3)CC2)c(C)o1", "> 100 µM (inactive)"],
  ["COc1cccc(/C=N/NC(=O)CSCC(=O)N/N=C/c2cccc(OC)c2OC)c1OC", "> 100 µM (inactive)"],
  ["COC(=O)c1c(OC)cccc1C(=O)O", "> 100 µM (inactive)"],
  ["CC(C)(C)[Si](C)(C)OCC1CCC(n2cnc3c(N)ncnc32)O1 (stereo not given)", "30.6 µM (inactive)"],
  ["C[C@]12CC[C@H](O)CC1=CC[C@@H]1[C@@H]2CC[C@]2(C)/C(=N/OCCN3CCCC3)CC[C@@H]12", "14.1 µM (inactive)"],
  ["CCO/S(=N/S(=O)(=O)c1ccccc1)c1ccccc1[N+](=O)[O-] (stereo not given)", "> 100 µM (inactive)"],
  ["Cc1ccc(C(=O)NC(C)(C)C)cc1/N=N/N(C)C", "> 100 µM (inactive)"]
]}

Q. Given the compound O=C(O)CCSC(=O)Nc1ccccc1 , what is its reported GI50?
A. > 100 µM (inactive)

Q. And Cn1c2ccccc2c2ccc3c(c21)C(=O)C=CC3=O ?
A. 12.7 µM (inactive)

----------
GI50 values for the compounds below.
# Tested on: CAKI-1
# EXPERIMENT: NCI tumour cell line growth inhibition, 48 h
Active and inactive are the calls of the source. Rule as the data show it: active = GI50 up to about 1.1 µM and inactive = higher.

Reference set (5 entries):
{"columns": ["COMPOUND", "MEASURED ON", "GI50"],
 "data": [
  ["COc1ccc(/N=N/c2c(-c3c(OC)cc4occc4c3OC)[nH]c(=O)c(C#N)c2C)cc1", "CAKI-1", "> 100 µM (inactive)"],
  ["COc1ccc(N(C(=O)NCCO)c2ccccc2)cc1", "CAKI-1", "> 100 µM (inactive)"],
  ["CC(=O)OC(=O)O/C=C\\CCl", "CAKI-1", "> 100 µM (inactive)"],
  ["COc1ccc(N2C(=O)C3CC4=CC(=O)C[C@H]4[C@H]32)cc1 (stereo partly specified)", "CAKI-1", "23.4 µM (inactive)"],
  ["COC1=C2C=[N+](C)C3C(=C2C=CC1OC)Cc1cc2c(cc13)OCO2 (stereo unspecified)", "CAKI-1", "15.8 µM (inactive)"]
]}

Below: the item to evaluate.
Q. Given the compound COc1cc2c(cc1OC)C1c3ccccc3CCN1CC2 (stereo unspecified) , what is its reported GI50?
A. > 100 µM (inactive)

----------
# Test system: UO-31
# EXPERIMENT: NCI tumour cell line growth inhibition, 48 h
Activity calls are given as the source filed them. Rule as the data show it: active = GI50 up to about 1.1 µM and inactive = higher.
GI50 values for the compounds below.

{"columns": ["COMPOUND", "GI50"],
 "data": [
  ["Sc1nn2c(COc3cc(Cl)c(OCc4nnc5sc(S)nn45)cc3Cl)nnc2s1", "31.3 µM (inactive)"],
  ["NCCNc1nc(N2CCCC2)c2nc(Cl)c(NCc3ccccc3)nc2n1", "1.73 µM (inactive)"],
  ["N#Cc1cc2c(n(C3OC(CO)C(O)C(O)C3O)c1=S)CCCCCC2 (configuration not stated)", "> 100 µM (inactive)"],
  ["N#CCc1nc2c(s1)C(=O)c1ccccc1C2=O", "15.5 µM (inactive)"],
  ["CC1(C)CCc2c(cc3c(c2O)CCC(C)(C)O3)O1", "> 100 µM (inactive)"]
]}

Below: the item to evaluate.
Q. Given the compound CC(=O)Oc1ccc2ccc(=O)oc2c1OC(C)=O , what is its reported GI50?
A. 30.1 µM (inactive)
